System: Pseudomonas fluorescens HPPD polypeptide (wild-type and mutants)
assay.explanation: Coupled HPPD activity assay: turnover and residual turnover in crude HPPD polypeptide extracts with and without Cmpd. 1
Type: biochemical
setup.conditions: absence of Cmpd. 1; changes in absorbance (OD) at 320 nm in the coupled assay, 30 min
Recorded Turnover, one value per entry.
endpoint: Turnover

• SEQ ID NO:53 (protein, mutant HPPD polypeptide) MADLYENPMGLMGFEFIEFASPTPGTLEPIFEIMGFTKVATHRSKNVHLYRQGEINLILNNEPNSIASYFAAEHGPSVCGMAFRVKDSQKAYNRALELGAQPIHIDTGPMELNLPAIKGIGGAPLYLIDRFGEGSSIYDIDFVYLEGVERNPVGAGLKVIDHLTHNVYRGRMVYWANFYEKLFNFREARYFDIKGEYTGLTSKAMSAPDGMIRIPLNEESSKGAGQIEEFLMQFNGEGIQHVAFLTDDLVKTWDALKKIGMRFLTAPGDEYYEMLEGRLPDHGEPVDQLQARGILLDGSSVEGDKRLLLQIFSETLMGPVFFEFIQRKGDDGFGPHSFKVLFEQMERDQVRRGVLTAD = 0.339
• SEQ ID NO:65 (protein, mutant HPPD polypeptide) MADLYENPMGLMGFEFIEFASPTPGTLEPIFEIMGFTKVATHRSKNVHLYRQGEINLILNNEPNSIASYFAAEHGPSVCGMAFRVKDSQKAYNRALELGAQPIHIDTGPMELNLPAIKGIGGAPLYLIDRFGEGSSIYDIDFVYLEGVERNPVGAGLKVIDHLTHNVYRGRMVYWANFYEKLFNFREARYFDIKGEYTGLTSKAMSAPDGMIRIPLNEESSKGAGQIEEFLMQFNGEGIQHVAFLTDDLVKTWDALKKIGMRFLTAPGDEYYEMLEGRLPDHGEPVDQLQARGILLDGSSVEGDKRLLLQIFSEKLMGPVFFEFIQRKGDDGFGPDSFKVLFEQIERDQVRRGVLTAD = 0.204
